These measurements were taken from patent US20090047244A1.

Entries annotated with measured EC50
test system: Huh-7 cells containing HCV Con1 subgenomic replicon (GS4.1 cells); test: HCV Replicon Assay (NS4A ELISA); format: cell-based; conditions: Hepatitis C virus, 72 hr, NS4A protein expression by ELISA

compound: C#CC1(S(=O)(=O)NC(=O)C23CC2/C=C\CCCCN(C)C(=O)NC(CCOc2cc(-c4nc(C(C)C)cs4)nc4c(Cl)c(OC)ccc24)C(=O)N3)CC1 (stereo not drawn)
EC50: < 0.1 µM

compound: COc1ccc2c(OCC[C@@H]3NC(=O)N(C)CCCC/C=C\[C@@H]4C[C@@]4(C(=O)NS(=O)(=O)C4(C)CC4)NC3=O)cc(-c3nc(C(C)C)cs3)nc2c1Cl
EC50: < 0.1 µM

compound: COc1ccc2c(OCCC3NC(=O)N(C)CCCC/C=C\C4CC4(C(=O)NS(=O)(=O)C4(F)CC4)NC3=O)cc(-c3nc(C(C)C)cs3)nc2c1Cl (stereo not drawn)
EC50: 0.1 to 10 µM

compound: COc1ccc2c(OCC[C@@H]3NC(=O)N(C)CCCC/C=C\[C@@H]4C[C@@]4(C(=O)NS(=O)(=O)C4(C)CC4)NC3=O)cc(-n3ccc(C(C)C)n3)nc2c1Cl
EC50: < 0.1 µM

compound: COc1ccc2c(OCC[C@@H]3NC(=O)N(C)CCCC/C=C\[C@@H]4C[C@@]4(C(=O)NS(=O)(=O)C4(C)CC4)NC3=O)cc(-c3ccn(CCC(C)C)n3)nc2c1C
EC50: 0.1 to 10 µM

compound: COc1ccc2c(OCC[C@@H]3NC(=O)N(C)CCCC/C=C\[C@@H]4C[C@@]4(C(=O)NS(=O)(=O)C4(C)CC4)NC3=O)cc(-c3nc(C(C)C)cs3)nc2c1
EC50: < 0.1 µM

compound: COc1ccc2c(OCC[C@@H]3NC(=O)N(C)CCCC/C=C\[C@@H]4C[C@@]4(C(=O)NS(=O)(=O)C4(C)CC4)NC3=O)cc(-c3ccn(CC(C)C)n3)nc2c1C
EC50: 0.1 to 10 µM

compound: COc1ccc2c(OCC[C@@H]3NC(=O)N(C)CCCC/C=C\[C@@H]4C[C@@]4(C(=O)NS(=O)(=O)C4(C)CC4)NC3=O)cc(-c3ccn(CCN4CCOCC4)n3)nc2c1C
EC50: 0.1 to 10 µM

compound: COc1ccc2c(OCC[C@@H]3NC(=O)N(C)CCCC/C=C\[C@@H]4C[C@@]4(C(=O)NS(=O)(=O)C4CC4)NC3=O)cc(-c3nc(C(C)C)cs3)nc2c1F
EC50: 10 to 1000 µM

compound: COc1ccc2c(OCC[C@@H]3NC(=O)N(C)CCCC/C=C\[C@@H]4C[C@@]4(C(=O)NS(=O)(=O)C4CC4)NC3=O)cc(-c3ccccc3)nc2c1
EC50: 0.1 to 10 µM

compound: COc1ccc2c(OCC[C@@H]3NC(=O)N(C)CCCC/C=C\[C@@H]4C[C@@]4(C(=O)OS(=O)(=O)C4(C)CC4)NC3=O)cc(-n3ccc(C(F)(F)F)n3)nc2c1C
EC50: < 0.1 µM

compound: COc1ccc2c(OCCC3NC(=O)N(C)CCCC/C=C\C4CC4(C(=O)NS(=O)(=O)C4(C)CC4)NC3=O)cc(-c3nc(C(C)C)cs3)nc2c1Br (stereo not drawn)
EC50: < 0.1 µM
